Values were extracted from patent US20190119282A1.

Target System: PAR2 (HT-29 cells, trypsin activation) (Homo sapiens, UniProt P55085)
Construct: host or cells: HT-29 cells
Sequence (P55085 26-397): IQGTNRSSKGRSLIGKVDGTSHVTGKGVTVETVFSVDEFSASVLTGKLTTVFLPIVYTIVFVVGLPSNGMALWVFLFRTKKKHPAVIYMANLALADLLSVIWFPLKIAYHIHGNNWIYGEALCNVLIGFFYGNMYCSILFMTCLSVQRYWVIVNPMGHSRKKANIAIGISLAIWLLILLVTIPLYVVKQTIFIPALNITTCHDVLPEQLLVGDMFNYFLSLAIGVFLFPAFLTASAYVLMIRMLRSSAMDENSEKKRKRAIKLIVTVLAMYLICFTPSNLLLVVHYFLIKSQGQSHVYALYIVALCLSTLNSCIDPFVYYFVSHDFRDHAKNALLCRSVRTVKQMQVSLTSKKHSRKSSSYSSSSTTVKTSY
Measurement Description: Ca FLIPR TETRA assay, ANTAGONIST mode, stimulation with 3.1 U/mL trypsin
Format: cell-based
Stated Conditions: Table 6; HT-29 cells, 3.1 U/mL trypsin
Kindly supply the reported pIC50 values for the records listed here.
For clarity, pIC50 is expressed as the negative log10 of concentration in mol/L.

Problem: Give its pIC50 value. Item: CC(C)c1cc(-c2ccc(F)cc2)nn2cc(C(=O)N3CCCCC34COC4)nc12 [Compound I-587]
Solution: 4.72

Problem: For Cc1cc(-c2ccc(F)cc2)nn2cc(C(=O)N3CCCC4(COC4)C3)nc12 [Compound I-586] then?
Solution: 4.72

Problem: Please answer likewise for CCC(=O)N1CCN(C(=O)c2cn3nc(-c4ccc(F)cc4)cc(C(F)(F)F)c3n2)CC1 [Compound I-584]
Solution: 5.70

Problem: Cool, now Cc1cc(-c2ccc(F)cc2)nn2cc(C(=O)N3CCC4(COC4)C3)nc12 [Compound I-585]
Solution: 4.62

---

Target System: PAR2 (HT-29 cells, trypsin activation) (Homo sapiens, UniProt P55085)
Construct: host or cells: HT-29 cells
Measurement Description: Ca FLIPR TETRA assay, ANTAGONIST mode, stimulation with 3.1 U/mL trypsin
Format: cell-based
Stated Conditions: Table 8; reported compounds of WO2005/030773, JP2003286171, JP2004170323; HT-29 cells
So I've got a bunch of molecules here, and I need their IC50 values.

Problem: Please look up its IC50: O=C(c1cc2nc(-c3ccccc3)cc(C(F)(F)F)n2n1)N1CCC(c2ccc(F)cc2)C1 (centres unmarked) [Compound P-607, reference compound]
Solution: > 50 µM

Problem: Would you kindly repeat that for O=C(c1ccccc1)N1CCN(C(=O)c2cc3nc(-c4ccccc4)cc(C(F)(F)F)n3n2)CC1 [Compound P-596, reference compound] ?
Solution: > 50 µM

Problem: Next entry: O=C(c1ccccc1)N1CCN(C(=O)c2cc3nc(-c4ccc(Cl)cc4)cc(C(F)(F)F)n3n2)CC1 [Compound P-606, reference compound]
Solution: > 50 µM

Problem: Do the same for O=C(O)C1CCCN(C(=O)c2cc3nc(-c4ccc(Cl)cc4)cc(C(F)(F)F)n3n2)C1 (centres unmarked) [Compound P-600, reference compound] please
Solution: > 50 µM

Problem: Try this molecule too: O=C(c1cc2nc(-c3ccc(Cl)cc3)cc(C(F)(F)F)n2n1)N1CCCCC1 [Compound P-593, reference compound]
Solution: > 50 µM

Problem: How about this molecule: CC1CCCCN1C(=O)c1cc2nc(-c3ccc(Cl)cc3)cc(C(F)(F)F)n2n1 (centres unmarked) [Compound P-598, reference compound]
Solution: > 50 µM

Problem: And for O=C(O)C1CCCCN(C(=O)c2cc3nc(-c4ccc(Cl)cc4)cc(C(F)(F)F)n3n2)C1 (centres unmarked) [Compound P-611, reference compound] ?
Solution: 1.25 µM

Problem: Let us now turn to CC1CCCCN1C(=O)c1cc2nc(-c3ccccc3)cc(C(F)(F)F)n2n1 (centres unmarked) [Compound P-595, reference compound]
Solution: 19.2 µM

Problem: // repeat for O=C(c1cc2nc(-c3ccccc3)cc(C(F)(F)F)n2n1)N1CCCCC1 [Compound P-594, reference compound] and report
Solution: 28 µM

Problem: Record: CN(CCO)C(=O)c1cc2nc(-c3ccccc3)cc(C(F)(F)F)n2n1 [Compound P-602, reference compound]
Solution: > 50 µM

Problem: Now this one: O=C(c1cc2nc(-c3ccc(Cl)cc3)cc(C(F)(F)F)n2n1)N1CCCCCC1 [Compound P-599, reference compound]
Solution: > 50 µM
